Recorded measurements of koff, one per entry
Experimental System: T1, recombinant human IL-25 protein (human, UniProt Q9H293 33-177)
T1 construct: Bought (Acro, catalog no: IL5-H4221) for ELISA; also called hIL-25; IL-17E
T1 sequence: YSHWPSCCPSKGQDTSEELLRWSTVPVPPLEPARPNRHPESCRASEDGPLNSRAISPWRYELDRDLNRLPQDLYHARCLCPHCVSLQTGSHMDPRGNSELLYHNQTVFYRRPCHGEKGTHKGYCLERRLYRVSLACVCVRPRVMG
Assay Summary: BLI, Fab; species of IL-25 not stated, taken as human
Measure: koff (s⁻¹)

Binder: IL25Ab3 Fab (Fab, V domains shown, VH/VL assigned as for IL25Ab3; also called murine parental Fab) VH: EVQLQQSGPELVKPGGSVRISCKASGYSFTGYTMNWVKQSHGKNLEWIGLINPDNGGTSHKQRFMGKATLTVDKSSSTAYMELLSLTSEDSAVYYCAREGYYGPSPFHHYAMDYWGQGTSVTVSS VL: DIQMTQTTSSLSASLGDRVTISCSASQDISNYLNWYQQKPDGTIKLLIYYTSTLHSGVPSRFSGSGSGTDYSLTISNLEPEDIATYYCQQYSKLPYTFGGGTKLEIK
Observed Value: 0.000285
--
Binder: IL25Ab7 Fab (Fab, V domains shown, VH/VL assigned as for IL25Ab7) VH: QVQLVQSGAEVKKPGASVKVSCKASGYSFTGYTMNWVRQAPGQGLEWMGLINPDNGGTSYKQKFQGRVTMTVDKSISTAYMELSRLRSDDTAVYYCAREGYYGPSPFHHYAMDYWGQGTLVTVSS VL: DIQMTQSPSSLSASVGDRVTITCQASQDISNYLNWYQQKPDGTIKLLIYYTSTLHTGVPSRFSGSGSGTDYTFTISSLQPEDIATYYCQQYSKLPYTFGQGTKLEIK
Observed Value: 0.00029
--
Binder: IL25Ab6 Fab (Fab, V domains shown) VH: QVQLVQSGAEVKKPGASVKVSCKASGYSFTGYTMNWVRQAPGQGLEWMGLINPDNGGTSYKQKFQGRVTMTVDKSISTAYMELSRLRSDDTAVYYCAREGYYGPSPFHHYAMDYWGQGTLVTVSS VL: DIQMTQSPSSLSASVGDRVTITCQASQDISNYLNWYQQKPGKAPKLLIYYTSTLHTGVPSRFSGSGSGTDYTFTISSLQPEDIATYYCQQYSKLPYTFGQGTKLEIK
Observed Value: 0.000249
--
Binder: IL25Ab8 Fab (Fab, V domains shown, VH/VL assigned as for IL25Ab8) VH: QVQLVQSGAEVKKPGASVKVSCKASGYSFTGYTMNWVRQAHGKNLEWMGLINPDNGGTSHKQKFQGRVTMTVDKSISTAYMELSRLRSDDTAVYYCAREGYYGPSPFHHYAMDYWGQGTLVTVSS VL: DIQMTQSPSSLSASVGDRVTITCQASQDISNYLNWYQQKPDGTIKLLIYYTSTLHTGVPSRFSGSGSGTDYTLTISSLQPEDIATYYCQQYSKLPYTFGGGTKLEIK
Observed Value: 0.000251
